Each entry below carries its recorded inhibition.
target: Dual specificity tyrosine-phosphorylation-regulated kinase 1A (Homo sapiens)
condition: at 1 µM
Description: GSK_PKIS: DYRK1A mean inhibition at 1 uM [Nanosyn]
Give the quantity in %, number only.

The following compounds have reported results that may help.
compound: CCn1c(-c2nonc2N)nc2cnc(Oc3cccc(NC(=O)c4ccc(N(C)C)cc4)c3)cc21
readout value: 5.38
--
compound: CCCN(CCS(C)(=O)=O)Cc1ccc(-c2ccc3ncnc(Nc4ccc(OCc5cccc(F)c5)c(Cl)c4)c3c2)o1
readout value: 10.8
--
compound: Nc1nc(-c2cccc(Cl)c2)c(-c2ccc3ncccc3n2)s1
readout value: 31.8
--
compound: O=C(O[C@H]1CN[C@H](C#Cc2cc3ncnc(Nc4ccc(Cc5ccccc5)cc4)c3s2)C1)N1CCOCC1
readout value: -0.14

Lookup: API: value(readout= inhibition, system= Dual specificity tyrosine-phosphorylation-regulated kinase 1A (Homo sapiens), query= "COC(=O)Nc1nc2ccc(Oc3ccc(NC(=O)Nc4cccc(Cl)c4)cc3)cc2[nH]1" )
Found: -2.75

Lookup: What value of inhibition on Dual specificity tyrosine-phosphorylation-regulated kinase 1A (Homo sapiens) does "COc1cccc(-n2ncc3c(N/N=C/c4ccc(F)cc4)ncnc32)c1" have?
Found: 24.2

Lookup: Find inhibition (Dual specificity tyrosine-phosphorylation-regulated kinase 1A (Homo sapiens)) for the entry "COc1ccc(-c2oc3ncnc(N)c3c2-c2ccc(NC(=O)Nc3cc(C(F)(F)F)ccc3F)cc2)cc1"
Found: 2.07

Lookup: API: value(readout= inhibition, system= Dual specificity tyrosine-phosphorylation-regulated kinase 1A (Homo sapiens), query= "CC(=O)Nc1cccc(C#Cc2cncnc2Nc2ccc(OCc3cccc(F)c3)c(Cl)c2)c1" )
Found: 1.4

Lookup: What measured inhibition is associated with "CCn1c(-c2nonc2N)nc2ccccc21" on Dual specificity tyrosine-phosphorylation-regulated kinase 1A (Homo sapiens)?
Found: 14.6

Lookup: For Dual specificity tyrosine-phosphorylation-regulated kinase 1A (Homo sapiens), provide inhibition of "COC(=O)c1sc(-n2cnc3cc(OC)c(OC)cc32)cc1OCc1ccccc1C(F)(F)F" please.
Found: 3.44

Lookup: Could you share what inhibition was measured for "CN1CCC(n2cnc(-c3ccc(F)cc3)c2-c2ccnc(Nc3ccccc3)n2)CC1" , tested on Dual specificity tyrosine-phosphorylation-regulated kinase 1A (Homo sapiens)?
Found: 2.82

Lookup: API: value(readout= inhibition, system= Dual specificity tyrosine-phosphorylation-regulated kinase 1A (Homo sapiens), query= "COc1ccc(-c2cc(-c3c[nH]nc3-c3ccccn3)ccn2)cc1" )
Found: 6.71

Lookup: What value of inhibition on Dual specificity tyrosine-phosphorylation-regulated kinase 1A (Homo sapiens) does "CCn1c(-c2nonc2N)nc2c(C#CC(C)(C)O)ncc(OC3CCNCC3)c21" have?
Found: -0.11

Lookup: Form field - read-out: inhibition; system: Dual specificity tyrosine-phosphorylation-regulated kinase 1A (Homo sapiens); submitted item: "Cc1ccc2c(-c3ccnc(Nc4ccccc4)n3)c(-c3ccc(F)cc3)nn2n1"
Found: 5.42

Lookup: Lab note: need inhibition with Dual specificity tyrosine-phosphorylation-regulated kinase 1A (Homo sapiens) for entry "Fc1ccc(-c2nn3ccccc3c2-c2ccncc2)cc1" , please look it up.
Found: 3.18

Lookup: For Dual specificity tyrosine-phosphorylation-regulated kinase 1A (Homo sapiens), provide inhibition of "CCNC(=O)O[C@H]1CN[C@H](C#Cc2cc3ncnc(Nc4ccc(OCc5cccc(F)c5)c(Cl)c4)c3s2)C1" please.
Found: 3.98

Lookup: Reported inhibition for Dual specificity tyrosine-phosphorylation-regulated kinase 1A (Homo sapiens), given "CNC(=O)c1cc(-c2ccc(F)cc2)cc(-c2ccc(S(=O)(=O)N3CCCC3)cc2)c1N" ?
Found: 3.9

Lookup: Requested read-out inhibition, target or system Dual specificity tyrosine-phosphorylation-regulated kinase 1A (Homo sapiens), entry "NS(=O)(=O)c1ccc(Nc2ncc(-c3ccccc3)o2)cc1"
Found: 16

Lookup: Enter reported inhibition observed with Dual specificity tyrosine-phosphorylation-regulated kinase 1A (Homo sapiens) for "COc1cc(Nc2nccc(Nc3ccc4c(C)n[nH]c4c3)n2)cc(OC)c1OC"
Found: 7.54

Lookup: Test system Dual specificity tyrosine-phosphorylation-regulated kinase 1A (Homo sapiens); read-out inhibition; what value for "COc1ccc(CNC(=O)c2ccc(-c3cc(-c4nnc(C)o4)ccc3C)cc2)cc1" ?
Found: 1.05

Lookup: Give the reported inhibition for "COc1cccc(-c2c[nH]c3c(N/N=C/c4ccncc4)ncnc23)c1" (system: Dual specificity tyrosine-phosphorylation-regulated kinase 1A (Homo sapiens)).
Found: 58.5

###

target: Vascular endothelial growth factor receptor 2 (Homo sapiens) (UniProt P35968)
Sequence (P35968 whole entry): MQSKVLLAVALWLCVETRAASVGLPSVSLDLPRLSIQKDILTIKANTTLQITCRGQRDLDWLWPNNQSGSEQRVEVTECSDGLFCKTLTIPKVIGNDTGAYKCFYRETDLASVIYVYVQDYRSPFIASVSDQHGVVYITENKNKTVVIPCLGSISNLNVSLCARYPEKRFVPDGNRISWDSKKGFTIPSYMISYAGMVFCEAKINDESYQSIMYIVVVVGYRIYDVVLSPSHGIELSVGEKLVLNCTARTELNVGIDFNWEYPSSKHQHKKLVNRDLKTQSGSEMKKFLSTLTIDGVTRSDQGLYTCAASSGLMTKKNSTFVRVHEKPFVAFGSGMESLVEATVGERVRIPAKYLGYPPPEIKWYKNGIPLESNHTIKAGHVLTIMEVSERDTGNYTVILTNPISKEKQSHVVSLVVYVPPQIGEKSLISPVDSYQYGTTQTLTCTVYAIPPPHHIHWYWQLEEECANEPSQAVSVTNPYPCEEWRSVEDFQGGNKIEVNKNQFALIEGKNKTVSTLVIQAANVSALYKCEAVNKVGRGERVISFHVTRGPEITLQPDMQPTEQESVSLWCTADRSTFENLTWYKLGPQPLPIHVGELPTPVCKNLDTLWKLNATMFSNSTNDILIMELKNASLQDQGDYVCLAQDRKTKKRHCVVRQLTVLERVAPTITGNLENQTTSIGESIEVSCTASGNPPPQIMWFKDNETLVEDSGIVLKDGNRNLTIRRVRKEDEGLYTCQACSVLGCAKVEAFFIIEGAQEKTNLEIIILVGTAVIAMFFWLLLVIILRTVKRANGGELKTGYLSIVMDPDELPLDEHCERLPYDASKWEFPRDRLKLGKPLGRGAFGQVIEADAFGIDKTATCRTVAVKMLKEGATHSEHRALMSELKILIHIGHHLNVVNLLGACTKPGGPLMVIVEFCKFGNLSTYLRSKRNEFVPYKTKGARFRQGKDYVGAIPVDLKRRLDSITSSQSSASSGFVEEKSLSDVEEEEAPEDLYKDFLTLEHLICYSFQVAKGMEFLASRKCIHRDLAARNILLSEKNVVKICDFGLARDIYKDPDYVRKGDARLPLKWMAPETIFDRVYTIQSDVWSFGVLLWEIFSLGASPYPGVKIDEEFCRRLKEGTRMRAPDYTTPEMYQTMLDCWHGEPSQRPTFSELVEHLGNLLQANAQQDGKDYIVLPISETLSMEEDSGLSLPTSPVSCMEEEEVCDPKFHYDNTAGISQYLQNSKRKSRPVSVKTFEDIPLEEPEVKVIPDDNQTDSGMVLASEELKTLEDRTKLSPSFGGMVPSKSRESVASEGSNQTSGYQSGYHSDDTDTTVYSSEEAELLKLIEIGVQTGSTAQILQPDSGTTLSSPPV
condition: at 0.1 µM
Description: GSK_PKIS: KDR mean inhibition at 0.1 uM [Nanosyn]
// reported inhibition for each item listed
State the value with its unit after it.

Some molecules with recorded inhibition:
smiles text: Nc1nc(-c2ccc(F)cc2)c(-c2ccc3ncccc3n2)s1
inhibition: 33.2%

smiles text: c1ccc(-c2nc3n(c2-c2ccc4c(c2)OCO4)CCC3)nc1
inhibition: 3.58%

smiles text: Cc1ccc2c(-c3ccnc(Nc4ccccc4)n3)c(-c3ccc(F)cc3)nn2n1
inhibition: 21%

smiles text: CC(=O)NCc1cccc(C#Cc2cncnc2Nc2ccc(OCc3cccc(F)c3)c(Cl)c2)c1
inhibition: 0.67%

smiles text: COC(=O)Nc1nc2ccc(Oc3ccc(NC(=O)Nc4cccc(Cl)c4)cc3)cc2[nH]1
inhibition: 32.4%

Lookup: Quick check: inhibition of "COc1cc(N2CCN(C(C)C)CC2)ccc1Nc1nc(Nc2ccc(F)cc2C(N)=O)c2cc[nH]c2n1" ?
Found: 4.96%

Lookup: Returns the measured inhibition for the input molecule. Input: "CCN(CC)S(=O)(=O)c1ccc(OC)c(Nc2ncc(-c3ccccc3)o2)c1"
Found: 31.3%

Lookup: What does the data say about its inhibition? Entry: "COc1cccc(-n2ncc3c(N/N=C/c4ccc(F)cc4)ncnc32)c1"
Found: 8.15%

Lookup: Requested read-out: inhibition. Entry: "Fc1ccc(-c2nn3ncccc3c2-c2ccnc(Nc3ccc4c(c3)OCCO4)n2)cc1"
Found: 30.6%

Lookup: Recorded inhibition for "NS(=O)(=O)c1ccc(Nc2ncc(-c3ccccc3)o2)cc1" , please?
Found: 6.16%

###

target: Protein kinase C eta type (Homo sapiens);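 also: value is the mean inhibition, from GSK PKIS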
condition: at 1 µM
Collected inhibition values appear next to each entry.
Report only the number, with the unit % understood.

The cases that follow already have their inhibition on record.
compound: Cc1ccc2c(-c3ccnc(Nc4ccccc4)n3)c(-c3ccc(F)cc3)nn2n1
reading unit: %
inhibition: 1.97
--
compound: Cc1cccc2c1NC(=O)/C2=N\Nc1ccc(S(N)(=O)=O)cc1
reading unit: %
inhibition: 3.34
--
compound: CC1=C(C(=O)Nc2cc(Cl)c3[nH]ncc3c2)C(c2ccc(C(F)(F)F)cc2)CC(=O)N1 (stereo not drawn)
reading unit: %
inhibition: 39.1
--
compound: CNC(=O)c1cccc(C#Cc2cncnc2Nc2ccc(OCc3cccc(F)c3)c(Cl)c2)c1
reading unit: %
inhibition: -0.12
--
compound: CCn1c(-c2nonc2N)nc2ccccc21
reading unit: %
inhibition: 67.6

Lookup: Requested field: inhibition. Item: "COc1ccc2c(-c3ccnc(Nc4cccc(OC(F)(F)F)c4)n3)cnn2n1"
Found: 6.9

Lookup: What does the data say about its inhibition? Entry: "N#Cc1c(NC(=O)CN2CCOCC2)sc2c1CCCC2"
Found: 3.17

Lookup: Param item = "CS(=O)(=O)CCNCc1ccc(-c2ccc3ncnc(Nc4ccc(OCc5ccccc5)c(C(F)(F)F)c4)c3c2)o1" ; retrieve measured inhibition.
Found: 5.11

Lookup: Fill in: inhibition of "Nc1nc(-c2ccc(F)cc2)c(-c2ccc3ncccc3n2)s1" is ___
Found: 6.71

Lookup: Please look up its inhibition: "Nc1ncc(-c2cccc(S(N)(=O)=O)c2)c2scc(-c3ccc(F)c(Cl)c3)c12"
Found: 6.59

Lookup: Fill blank: measured inhibition of the compound "COc1cc2c(cc1Nc1nc(Nc3ccsc3C(N)=O)c3cc[nH]c3n1)N(C(=O)CN(C)C)CCC2(C)C" is ____.
Found: 9.1

Lookup: I am curious: what inhibition value has been reported for "[O-][S+]1CCN(Cc2ccc(-c3ccc4ncnc(Nc5ccc(OCc6cccc(F)c6)c(Cl)c5)c4c3)o2)CC1" ?
Found: 4.25

Lookup: Requested field: inhibition. Item: "O=S(=O)(CCNCc1ccc(-c2ccc3ncnc(Nc4ccc(OCc5cccc(F)c5)c(Cl)c4)c3c2)o1)c1ccccc1"
Found: 3.1

Lookup: Would you mind telling me what inhibition value was observed for "CCN(CC)S(=O)(=O)c1ccc(OC)c(Nc2ncc(-c3ccccc3)o2)c1" ?
Found: 0.58

Lookup: Which inhibition is listed for "Clc1ccc(-c2nn3ncccc3c2-c2ccnc(Nc3ccccc3)n2)cc1" ?
Found: -0.77

Lookup: Fill in: inhibition of "CC(C)(CO)CNC(=O)c1ccc2c(c1)/C(=N/Nc1ccc(S(N)(=O)=O)cc1)C(=O)N2" is ___
Found: -0.08

Lookup: Would you kindly share the measured inhibition for "CCn1c(-c2nonc2N)nc2cnc(Oc3cccc(NC(=O)c4ccc(N(C)C)cc4)c3)cc21" ?
Found: 88

Lookup: Can you look up the measured inhibition of "COC(=O)Nc1nc2ccc(Oc3ccc(NC(=O)Nc4cccc(Cl)c4)cc3)cc2[nH]1" for me?
Found: -0.24

Lookup: Any idea what its inhibition is? The compound is "COc1ccc(-c2cc(-c3c[nH]nc3-c3ccccn3)ccn2)cc1"
Found: 5.03

Lookup: Entry "CCn1c(-c2nonc2N)nc2c(C#CC(C)(C)O)nc(OC[C@H](N)c3ccccc3)cc21" : reported inhibition = ?
Found: 97.1

Lookup: I am curious: what inhibition value has been reported for "Fc1cccc(COc2ccc(Nc3ncnc4sc(-c5ccco5)cc34)cc2Cl)c1" ?
Found: 4.83

Lookup: # get_value(readout='inhibition', item= "NS(=O)(=O)c1ccc(Nc2ncc(-c3ccccc3)o2)cc1" )
Found: 1.9

Lookup: What does the data say about its inhibition? Entry: "CS(=O)(=O)CCNCc1coc(-c2ccc3ncnc(Nc4ccc(OCc5ccccc5)cc4)c3c2)c1"
Found: 3.63

Lookup: Which value of inhibition has been reported for "Nc1nc(-c2cccc(Cl)c2)c(-c2ccc3ncccc3n2)s1" in the records?
Found: 7.42

Lookup: Record request: inhibition value, item "COc1ccc(-c2oc3ncnc(N)c3c2-c2ccc(NC(=O)Nc3cc(C(F)(F)F)ccc3F)cc2)cc1"
Found: 5.99

Lookup: Using the record for "COc1cc(/C=N/Nc2ncnc3[nH]ncc23)ccc1O" , report its inhibition.
Found: 7.35

Lookup: Name the recorded inhibition for "O=C(O[C@H]1CN[C@H](C#Cc2cc3ncnc(Nc4ccc(Cc5ccccc5)cc4)c3s2)C1)N1CCOCC1" .
Found: 4.45

Lookup: Using the record for "CC(=O)NCc1cccc(C#Cc2cncnc2Nc2ccc(OCc3cccc(F)c3)c(Cl)c2)c1" , report its inhibition.
Found: 3.4

Data credit: ChEMBL document CHEMBL1961873
